- test-target: CNS cholinergic receptor
- test-description: CNS cholinergic receptor binding, oxotremorine M ligand
- measurement-context: tritiated oxotremorine M; read-out: CNS Cholinergic Receptor Binding Assays K1 Oxotremorine
Overview of recorded pKi for various molecules
Please report pKi as the negative decimal logarithm of the molar concentration, giving only the number.

// query Specify pKi for `CN(C)CC#CCn1ccn(C)c1=O` and stop.
// result 7.43

// query Look up pKi of `CN1CC(=O)N(CC#CCN2CCCC2)C1=O` and report it.
// result 7.70

// query Identify measured pKi corresponding to `CN(C)CC#CCN1C(=O)CN(C)C1=O`
// result 7.07

// query Return value of pKi for input CN(C)C(=O)N1CCC[C@@H]1C#CCN1CCCC1 [Compound 51E] , no commentary.
// result 7.92

// query Entry `CN1CCN(CC#CCN2CCCC2)C1=O` needs its pKi filled in; supply it.
// result 8.57

// query Retrieve pKi measured for CN(C)CC#C[C@H]1CCCN1C(=O)OC(C)(C)C [Compound 49C] and print it.
// result 7.36

----------
- test-target: CNS cholinergic receptor
- measurement-context: tritiated quinuclidine benzylate (QNB); read-out: CNS Cholinergic Receptor Binding Assays K1 QNB
pKi: −log10 of the molar value.
I would appreciate it if you labelled entries Fulfilled when pKi is 6 or higher, otherwise Not fulfilled.

Check out these entries, answers already filled in.
>>> cat("CCN(CC)CC#CC(C)N1CCN(C)C1=O (centres unmarked)")
"Not fulfilled"
>>> cat("CC(=O)N1CCN(CC#CCn2cncc2C)C1=O")
"Not fulfilled"
>>> cat("CC(C#CCN(C)C)n1ccn(C)c1=O (centres unmarked)")
"Not fulfilled"
>>> cat("Cc1cncn1CC#CCN1CCN(C)C1=O")
"Fulfilled"

// query Check the entry `CCN(CC)CC#CCn1ccn(C)c1=O` : does pKi equal or exceed 6?
// result Not fulfilled

// query Dear colleague, could you confirm whether `CN(C)CC#CCN1CCN(C(=O)OC(C)(C)C)C1=O` has pKi at or above 6?
// result Not fulfilled

// query Determine whether measured pKi meets or exceeds 6 for CC(=O)N1CCC[C@H]1C#CCN1CCCC1 [Compound 51B]
// result Not fulfilled

// query Could you verify whether the entry `Cn1ccn(CC#CCn2ccnc2)c1=O` shows pKi of no less than 6?
// result Not fulfilled

----------
- test-target: CNS cholinergic receptor
- test-description: CNS cholinergic receptor binding, oxotremorine M ligand
- measurement-context: tritiated oxotremorine M; read-out: CNS Cholinergic Receptor Binding Assays K1 Oxotremorine
Ki overview
The reply should be a number in nM, with the unit left off.

>>> reported("N#CN1CCC[C@@H]1C#CCN1CCCC1 [Compound 51I]")
310

// query Note Ki for the compound shown: CC(=O)N1CCC[C@@H]1C#CCN(C)C [Compound 51C]
// result 130

// query Please list Ki recorded for the compound CN1CCN(CC#CCn2ccnc2)C1=O [Compound 28]
// result 2

// query Specify reported Ki for the compound shown: C(#C[C@H]1CCCN1)CN1CCCC1 [Compound 50A]
// result 260

// query Note Ki for the compound shown: CNC(=O)N1CCC[C@@H]1C#CCN1CCCC1 [Compound 51G]
// result 240

----------
- test-target: CNS cholinergic receptor
- measurement-context: tritiated quinuclidine benzylate (QNB); read-out: CNS Cholinergic Receptor Binding Assays K1 QNB
Parameter: pKi. Scope: all listed entries.
Keep it numeric: pKi is minus log10 of the concentration in mol/L.

>>> reported("COC(=O)N1CCC[C@H]1C#CCN1CCCC1 [Compound 51K]")
6.66
>>> reported("Cc1cncn1CC#CCn1ccn(C)c1=O [Compound 7]")
6.21
>>> reported("CC1CN(C)C(=O)N1CC#CCN1CCCC1 (centres unmarked) [Compound 19]")
7.70
>>> reported("C#CCN1CCN(CC#CCN2CCCC2)C1=O [Compound 14]")
5.64
>>> reported("CN1CC(=O)N(CC#CCN2CCCC2)C1=O [Compound 44]")
5.06

// query # return recorded pKi for input CC(C#CCN1CCCC1)N1CCNC1=O (centres unmarked) [Compound 31]
// result 6.87

// query For CN1CCN(CC#CCN2CCCC2)C1=O [Compound 1] , write its pKi.
// result 6.74

----------
- test-target: CNS cholinergic receptor
- test-description: CNS cholinergic receptor binding, oxotremorine M ligand
- measurement-context: tritiated oxotremorine M; read-out: CNS Cholinergic Receptor Binding Assays K1 Oxotremorine
reported-endpoint: pKi
Quick note: pKi means taking -log10 of the concentration in moles per liter.

# example entries with known answers
>>> reported("CC1CN(CC#CCN2CCCC2)C(=O)N1C(=O)OC(C)(C)C (stereo not shown)")
6.09
>>> reported("CC1CN(CC#CCN2CCCC2)C(=O)N1 (stereo not shown)")
6.85
>>> reported("CC(=O)N1CCC[C@H]1C#CCN1CCCC1 [Compound 51B]")
6.43
>>> reported("C#CCN1CCN(CC#CCN2CCCC2)C1=O")
6.70
>>> reported("CN1C(=O)CN(CC#CCN2CCCC2)C1=O")
6.44
>>> reported("O=c1[nH]ccn1CC#CCN1CCCC1")
7.48

// query Write down pKi measured for item `Cn1ccn(CC#CCN2CCCC2)c1=O`
// result 8.15

// query Report measured pKi; entry is CCOC(=O)N1CCC[C@@H]1C#CCN1CCCC1 [Compound 51L]
// result 7.30

// query Consider the molecule `CC1(C)CN(CC#CCN2CCCC2)C(=O)N1` and give its recorded pKi.
// result 6.09

// query Give reported pKi value for `CC(=O)N1CCN(CC#CCn2cncc2C)C1=O`
// result 6.83

// query Give the reported value of pKi for this record: `O=C1NCCN1CC#CCn1ccnc1`
// result 7.21

// query Please look at this molecule and report its pKi: CC(C)(C)OC(=O)N1CCC[C@@H]1C#CCN1CCCC1 [Compound 49A]
// result 7.70

// query Answer with the recorded pKi for the molecule listed here: `CC(C)(C)OC(=O)N1CCN(CC#CCN2CCCC2)C1=O`
// result 6.89

// query In one line, give reported pKi of the entry `Cc1cncn1CC#CCN1CCNC1=O` .
// result 6.86

// query Query pKi for `Cc1cncn1CC#CCn1ccn(C)c1=O`
// result 7.41

// query Please give the documented pKi of NC(=O)N1CCC[C@@H]1C#CCN1CCCC1 [Compound 51H]
// result 6.36

// query Kindly indicate its recorded pKi. Item: `CCN(CC)CC#CCN1CCNC1=O`
// result 6.37

// query Find the measured pKi of `O=C1N(CC#CCN2CCCC2)CCN1c1ccccc1` and report it.
// result 7.16

----------
- Test system: HCl-induced writhing
- test-description: HCl writhing protection (analgesic activity)
- Format: in vivo, CF1 mice
- measurement-context: Mus musculus, sc; ED50; s.c. in CF1 mice, 30 min before i.p. 0.15% HCl; read-out: CNS Id (ED50 mg/kg) HCl Writh. Protect
Each entry below lists one item and its recorded ED50 value.

>>> reported("C#CCN1CCN(CC#CCN2CCCC2)C1=O")
"> 25 mg/kg"
>>> reported("CN(C)CC#CCN1CCN(C)C1=O")
"> 13 mg/kg"

// query Find the measured ED50 of CC(=O)N1CCC[C@H]1C#CCN(C)C [Compound 51D] and report it.
// result > 50 mg/kg

// query Give ED50 for NC(=O)N1CCC[C@@H]1C#CCN1CCCC1 [Compound 51H]
// result > 50 mg/kg

// query Supply recorded ED50 for `CN(C)CC#CCN1CCN(c2ccccc2)C1=O` here.
// result > 50 mg/kg

// query For the compound `CN(C)CC#CCN1CCN(C(=O)OC(C)(C)C)C1=O` , give its measured ED50 value.
// result > 50 mg/kg

----------
- test-target: CNS cholinergic receptor
- measurement-context: read-out: CNS Cholinergic Receptor Binding Assays K1 QNB
reported-endpoint: Ki (µM)
# value in µM; strip the unit string

// query Name the value of Ki reported for CN1CCN(CC#CCn2ccnc2)C1=O [Compound 28] when tested on CNS cholinergic receptor.
// result 1.87

----------
- Test system: HCl-induced writhing
- test-description: HCl writhing protection (analgesic activity)
- Format: in vivo, CF1 mice
- measurement-context: Mus musculus, sc; ED50; s.c. in CF1 mice, 30 min before i.p. 0.15% HCl; read-out: CNS Id (ED50 mg/kg) HCl Writh. Protect
reported-endpoint: ED50

// query Query ED50 for CN(C)C(=O)N1CCC[C@H]1C#CCN1CCCC1 [Compound 51F]
// result > 50 mg/kg

// query Supply measured ED50 of CC(=O)N1CCC[C@@H]1C#CCN1CCCC1 [Compound 51A] in your reply.
// result > 50 mg/kg

// query Return ED50 (reported value) for this compound: `CC1(C)CN(CC#CCN2CCCC2)C(=O)N1`
// result > 50 mg/kg

Where do the numbers come from? From patent US5137905A.
